Data origin, for the record: patent US11162951B2

Target: FAST (variant of the photoactive yellow protein (PYP), SEQ ID NO: 3) (Halorhodospira halophila, UniProt P16113, C69G/D97P/F96I/M100R/Q99S/T101G/T95M/Y94W/Y98T)
Construct: His tag; made in house; host or cells: Rosetta(DE3)pLysS E. coli
Sequence (P16113 whole entry C69G/Y94W/T95M/F96I/D97P/Y98T/Q99S/M100R/T101G): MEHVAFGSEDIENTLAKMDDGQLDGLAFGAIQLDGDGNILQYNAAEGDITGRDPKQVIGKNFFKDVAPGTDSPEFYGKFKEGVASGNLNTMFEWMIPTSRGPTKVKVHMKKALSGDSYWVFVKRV
Experiment: Physico-chemical (absorption/fluorescence) properties of FAST:fluorogen complexes
Format: physicochemical
Conditions: FAST:fluorogen complex in PBS pH 7.4
ENDPOINT_LABEL: ϕ, fluorescence quantum yield (%)
Provide only the numeric value, understood in %.

[
  {
    "MOLECULE": "O=C1NC(=S)S/C1=C\\c1ccc(O)cc1 [HBR, 4-hydroxybenzylidene rhodanine, reference compound]",
    "UNITS_LABEL": "%",
    "MEASURED_RESULT": 9
  },
  {
    "MOLECULE": "CCOc1cc(/C=C2\\SC(=S)N(CC(=O)O)C2=O)ccc1O",
    "UNITS_LABEL": "%",
    "MEASURED_RESULT": 6
  }
]

Reported ϕ, fluorescence quantum yield ( `COc1cc(/C=C2\SC(=S)N(CC(=O)O)C2=O)cc(OC)c1O` ) = 1

Reported ϕ, fluorescence quantum yield ( `Cc1cc(/C=C2\SC(=S)N(CC(=O)O)C2=O)ccc1O` ) = 6

###

Target: FAST (variant of the photoactive yellow protein (PYP), SEQ ID NO: 3) (Halorhodospira halophila, UniProt P16113, C69G/D97P/F96I/M100R/Q99S/T101G/T95M/Y94W/Y98T)
Construct: His tag; made in house; host or cells: Rosetta(DE3)pLysS E. coli
Assay: Physico-chemical (absorption/fluorescence) properties of FAST:fluorogen complexes
Format: physicochemical
Conditions: FAST:fluorogen complex in PBS pH 7.4
ENDPOINT_LABEL: Brightness (ε×ϕ)

[
  {
    "COMPOUND": "Cc1cc(/C=C2\\SC(=S)N(CC(=O)O)C2=O)c(C)cc1O [HBRAA-2,5DM]",
    "Brightness (ε×ϕ)": "3,200"
  },
  {
    "COMPOUND": "O=C1NC(=S)S/C1=C\\c1ccc(O)cc1 [HBR, 4-hydroxybenzylidene rhodanine, reference compound]",
    "Brightness (ε×ϕ)": "4,000"
  }
]

// next item, Brightness (ε×ϕ) requested
Reported Brightness (ε×ϕ) ( Cc1cc(/C=C2\SC(=S)N(CC(=O)O)C2=O)ccc1O [HBRAA-3M] ) = 3,400

###

Target: FAST (variant of the photoactive yellow protein (PYP), SEQ ID NO: 3) (Halorhodospira halophila, UniProt P16113, C69G/D97P/F96I/M100R/Q99S/T101G/T95M/Y94W/Y98T)
Construct: His tag; made in house; host or cells: Rosetta(DE3)pLysS E. coli
Assay: Physico-chemical (absorption/fluorescence) properties of FAST:fluorogen complexes
Format: physicochemical
Conditions: FAST:fluorogen complex in PBS pH 7.4
Lab note: anything with ε, molar absorption coefficient at λabs below 60 mM⁻¹ cm⁻¹ is marked condition met; values at 60 mM⁻¹ cm⁻¹ or higher are marked condition not met.

Answered cases to consult:
[
  {
    "MOLECULE": "COc1cc(O)ccc1/C=C1\\SC(=S)N(CC(=O)O)C1=O [HBRAA-2OM]",
    "CLASS": "condition met"
  },
  {
    "MOLECULE": "O=C1NC(=S)S/C1=C\\c1ccc(O)cc1 [HBR, 4-hydroxybenzylidene rhodanine, reference compound]",
    "CLASS": "condition met"
  }
]

Q: For Cc1cc(/C=C2\SC(=S)N(CC(=O)O)C2=O)ccc1O [HBRAA-3M] , is the recorded ε, molar absorption coefficient at λabs below the cut-off of 60 mM⁻¹ cm⁻¹?
A: condition met

Q: For CCOc1cc(/C=C2\SC(=S)N(CC(=O)O)C2=O)ccc1O [HBRAA-3OE] , is the recorded ε, molar absorption coefficient at λabs below the cut-off of 60 mM⁻¹ cm⁻¹?
A: condition not met

Q: For Cc1cc(/C=C2\SC(=S)N(CC(=O)O)C2=O)c(C)cc1O [HBRAA-2,5DM] , is the recorded ε, molar absorption coefficient at λabs below the cut-off of 60 mM⁻¹ cm⁻¹?
A: condition not met
